Taken from PubChem BioAssay (Tox21).

# Method Notes: qHTS assay to identify small molecule agonists of the estrogen related receptor (ERR) signaling pathway from Tox21 library (AID 1224849); further: on the % scale 0 is the no-effect control and ±100 the full control effect; nearly all actives have a fitted effect of over 15% in size
# Experimental Context: ERR reporter cell line, ONE-Glo luciferase, 18 h; at 92.4 µM (top of the series) unless noted
The source made the active and inactive calls. The call rests on the fitted dose curve.
Field: activity change, positive = activation. Provide a value for each of the compounds that follow.

Request: Fill in the blank: the reported activity change, positive = activation of O=C(O)CNC(=O)c1ccc([N+](=O)[O-])cc1 is ____.
Result: 4.79% (inactive)

Request: For Cc1ccc(Cl)cc1Cl then?
Result: -0.115% (inactive)

Request: For CCCC(=O)O[C@]1(C(=O)CO)CC[C@H]2[C@@H]3CCC4=CC(=O)CC[C@]4(C)[C@H]3[C@@H](O)C[C@@]21C then?
Result: -12.3% [at 42.5 µM] (inactive)

Request: For N[C@@H](C(=O)N[C@@H]1C(=O)N2C(C(=O)O)=C(Cl)CS[C@H]12)c1ccccc1 then?
Result: 4.35% [at 8.39 µM] (inactive)

Request: For NC(CSCC(=O)O)C(=O)O (stereo not drawn) then?
Result: 5.41% [at 42.5 µM] (inactive)

Request: For CCOC(=O)C(=O)OCC then?
Result: 4.42% (inactive)

Request: For C=C(C)CS(=O)(=O)O then?
Result: 0.527% (inactive)

Request: For CCS(=O)(=O)c1ccc(OC)c(C(=O)OC)c1 then?
Result: 4.43% [at 42.5 µM] (inactive)

Request: For COC(=O)CC(C)=O then?
Result: 2.59% (inactive)

Request: For COC(=O)c1cc(C(=O)OC)cc(S(=O)(=O)O)c1 then?
Result: 0.501% (inactive)

Request: For CN1C(=O)N(C)C(O)C1O (stereo not drawn) then?
Result: 0.239% (inactive)

Request: For COC(=O)[C@@H](N)Cc1ccc(O)c(O)c1 then?
Result: 6.86% [at 42.5 µM] (inactive)

Request: For C[C@H]1C[C@@H](O)CC(C)(C)C1 then?
Result: 0.742% (inactive)

Request: For O=c1cc(CO)occ1O then?
Result: 3.24% [at 42.5 µM] (inactive)

Request: For CC(=O)c1ccccc1O then?
Result: 0.43% (inactive)

Request: For COc1cc(C(=O)N2CCCCCCC2)cc(OC)c1OC then?
Result: 8.77% [at 42.5 µM] (inactive)

Request: For C[C@](N)(Cc1ccc(O)cc1)C(=O)O then?
Result: 2.18% [at 8.39 µM] (inactive)

Request: For CCCN1CCCC[C@H]1C(=O)Nc1c(C)cccc1C then?
Result: 6.18% [at 42.5 µM] (inactive)

Request: For N=C(N)c1ccc2cc(OC(=O)c3ccc(N=C(N)N)cc3)ccc2c1 then?
Result: 0.274% [at 42.5 µM] (inactive)

Request: For NS(=O)(=O)c1cc(C(=O)O)cc(N2CCCC2)c1Oc1ccccc1 then?
Result: 0.186% [at 42.5 µM] (inactive)

Request: For CS(=O)(=O)O then?
Result: 3.34% (inactive)

Request: For CC(NC(CCc1ccccc1)C(=O)O)C(=O)N1C(=O)N(C)CC1C(=O)O (stereo not drawn) then?
Result: 2.19% [at 42.5 µM] (inactive)

Request: For NS(=O)(=O)c1ccccc1Cl then?
Result: 2.78% (inactive)

Request: For CCCCNC(=O)NCCCC then?
Result: 12.5% (inactive)

Request: For CCc1nccnc1CC then?
Result: 2.61% [at 19 µM] (inactive)

Request: For CCCCCCCCCCCCCCCCC then?
Result: -0.135% (inactive)

Request: For C=CCOCC(CC)(CO)COCC=C then?
Result: 4.88% (inactive)

Request: For CC(C)NCCCC1(C(N)=O)c2ccccc2-c2ccccc21 then?
Result: 9.55% [at 42.5 µM] (inactive)
